Give measured ΔTm for each item. Keep answers brief.
- Tested on: DNA
- protocol details: Binding affinity to calf thymus DNA assessed as change in thermal stability at pH 7.0 after 18 hrs by thermal denaturation assay
- Assay type: nucleic-acid assay
- condition info: Bos taurus
The reply should read as a number followed by its unit.

// solved cases for ΔTm follow
CCOP(=O)(CCN1CCN(CCCCCOc2cc3c(cc2OC)C(=O)N2CCC[C@H]2C=N3)CC1)OCC 7.2 °C
CCOP(=O)(CCCN1CCN(CCCCOc2cc3c(cc2OC)C(=O)N2CCC[C@H]2C=N3)CC1)OCC 7.1 °C

Name the reported ΔTm value associated with the molecule CCOP(=O)(CCCN1CCN(CCCCCOc2cc3c(cc2OC)C(=O)N2CCC[C@H]2C=N3)CC1)OCC
10 °C
